Item-by-item account of %-inhibition of FLT3
- TGT: panel of more than 300 wild-type and mutant kinases (313 kinase panel) (Homo sapiens, UniProt P36888)
- TEST NAME: Kinase profiling in a biochemical assay panel (mobility shift assays and ELISA), %-inhibition at 1 μM; selectivity entropy
- CONDITION NOTES: kinase FLT3; compound at 1 μM

[
  {
    "COMPOUND": "COc1cc2c(Nc3ccc(Br)cc3F)ncnc2cc1OCC1CCN(C)CC1",
    "VALUE UNITS": "%",
    "%-inhibition of FLT3": 90
  },
  {
    "COMPOUND": "CC(C)(C)c1nc(-c2cccc(NS(=O)(=O)c3c(F)cccc3F)c2F)c(-c2ccnc(N)n2)s1",
    "VALUE UNITS": "%",
    "%-inhibition of FLT3": 41
  },
  {
    "COMPOUND": "CCCS(=O)(=O)Nc1ccc(F)c(C(=O)c2c[nH]c3ncc(-c4ccc(Cl)cc4)cc23)c1F",
    "VALUE UNITS": "%",
    "%-inhibition of FLT3": 10
  },
  {
    "COMPOUND": "COc1cc2nccc(Oc3ccc(NC(=O)C4(C(=O)Nc5ccc(F)cc5)CC4)cc3)c2cc1OC [cabozantinib]",
    "VALUE UNITS": "%",
    "%-inhibition of FLT3": 91
  },
  {
    "COMPOUND": "CO[C@H]1C[C@@H]2CC[C@@H](C)[C@@](O)(O2)C(=O)C(=O)N2CCCC[C@H]2C(=O)O[C@H]([C@H](C)C[C@@H]2CC[C@@H](OCCO)[C@H](OC)C2)CC(=O)[C@H](C)/C=C(\\C)[C@@H](O)[C@@H](OC)C(=O)[C@H](C)C[C@H](C)/C=C/C=C/C=C/1C",
    "VALUE UNITS": "%",
    "%-inhibition of FLT3": 2.25
  },
  {
    "COMPOUND": "O=S(=O)(c1cccc2cnccc12)N1CCCNCC1",
    "VALUE UNITS": "%",
    "%-inhibition of FLT3": 22
  },
  {
    "COMPOUND": "CNC(=O)c1cc(Oc2ccc(NC(=O)Nc3ccc(Cl)c(C(F)(F)F)c3)c(F)c2)ccn1",
    "VALUE UNITS": "%",
    "%-inhibition of FLT3": 68
  },
  {
    "COMPOUND": "CO[C@H]1C[C@@H]2CC[C@@H](C)[C@@](O)(O2)C(=O)C(=O)N2CCCC[C@H]2C(=O)O[C@H]([C@H](C)C[C@@H]2CC[C@@H](OC(=O)C(C)(CO)CO)[C@H](OC)C2)CC(=O)[C@H](C)/C=C(\\C)[C@@H](O)[C@@H](OC)C(=O)[C@H](C)C[C@H](C)/C=C/C=C/C=C/1C",
    "VALUE UNITS": "%",
    "%-inhibition of FLT3": 5
  },
  {
    "COMPOUND": "Cc1ccc(C(=O)Nc2ccc(CN3CCN(C)CC3)c(C(F)(F)F)c2)cc1C#Cc1cnc2cccnn12",
    "VALUE UNITS": "%",
    "%-inhibition of FLT3": 99
  },
  {
    "COMPOUND": "COc1cc(Nc2c(C#N)cnc3cc(OCCCN4CCN(C)CC4)c(OC)cc23)c(Cl)cc1Cl",
    "VALUE UNITS": "%",
    "%-inhibition of FLT3": 77
  },
  {
    "COMPOUND": "CS(=O)(=O)CCNCc1ccc(-c2ccc3ncnc(Nc4ccc(OCc5cccc(F)c5)c(Cl)c4)c3c2)o1",
    "VALUE UNITS": "%",
    "%-inhibition of FLT3": -3.74
  },
  {
    "COMPOUND": "CC(=O)Nc1cccc(-n2c(=O)n(C3CC3)c(=O)c3c(Nc4ccc(I)cc4F)n(C)c(=O)c(C)c32)c1",
    "VALUE UNITS": "%",
    "%-inhibition of FLT3": 20
  }
]
